Tgt: T1, human EphA7 (Homo sapiens, UniProt Q15375)
T1 construct: a protein of the extracellular region of each human Eph receptor fused with the SEAP protein and the His tag; made in house; host or cells: Expi293F cells (culture supernatant)
T1 sequence (Q15375 28-555 limits assumed): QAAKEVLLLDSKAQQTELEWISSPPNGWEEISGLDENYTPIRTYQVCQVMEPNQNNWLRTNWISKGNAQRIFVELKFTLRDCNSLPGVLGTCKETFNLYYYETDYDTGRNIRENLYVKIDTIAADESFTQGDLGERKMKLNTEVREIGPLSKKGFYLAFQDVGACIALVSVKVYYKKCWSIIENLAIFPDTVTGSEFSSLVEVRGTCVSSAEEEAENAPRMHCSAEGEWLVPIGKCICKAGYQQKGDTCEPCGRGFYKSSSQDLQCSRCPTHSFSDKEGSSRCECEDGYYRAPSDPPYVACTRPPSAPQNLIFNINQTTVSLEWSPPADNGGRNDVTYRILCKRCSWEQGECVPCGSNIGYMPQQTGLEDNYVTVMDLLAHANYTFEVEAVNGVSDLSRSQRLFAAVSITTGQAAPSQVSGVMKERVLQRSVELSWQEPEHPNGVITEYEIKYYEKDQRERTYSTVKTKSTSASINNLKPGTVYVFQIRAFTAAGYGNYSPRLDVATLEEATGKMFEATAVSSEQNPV
Experimental Details: Selectivity ELISA of humanized antibodies for human Eph receptor
Assay type: binding
Test Conditions: coated protein 1 nM
Reported hEphA7-SEAP-: absorbance at 450 nm, percentage with respect to hEphA4-SEAP-His as 100% values for the following molecules.
Response body: numeric value in %, unit text excluded.

Which hEphA7-SEAP-: absorbance at 450 nm, percentage with respect to hEphA4-SEAP-His as 100% is listed for 84 (antibody, V domains shown, constant regions without entry; synthetic humanized antibody light chain variable region sequence; synthetic humanized antibody heavy chain variable region sequence) VL: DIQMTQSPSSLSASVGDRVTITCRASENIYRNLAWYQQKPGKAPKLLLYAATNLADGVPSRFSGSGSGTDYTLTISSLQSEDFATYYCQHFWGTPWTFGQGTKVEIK VH: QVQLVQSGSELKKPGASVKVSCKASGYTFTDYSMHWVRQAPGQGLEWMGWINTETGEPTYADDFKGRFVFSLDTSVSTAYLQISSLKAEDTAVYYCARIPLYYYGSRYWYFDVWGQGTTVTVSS ? 4.8

State the recorded hEphA7-SEAP-: absorbance at 450 nm, percentage with respect to hEphA4-SEAP-His as 100% for this entry: 136 (antibody, V domains shown, synthetic humanized antibody heavy chain variable region sequence; synthetic humanized antibody light chain variable region sequence) VH: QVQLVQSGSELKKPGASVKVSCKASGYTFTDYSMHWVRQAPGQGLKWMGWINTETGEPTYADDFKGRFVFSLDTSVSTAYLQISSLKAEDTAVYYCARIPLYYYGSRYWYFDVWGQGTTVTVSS VL: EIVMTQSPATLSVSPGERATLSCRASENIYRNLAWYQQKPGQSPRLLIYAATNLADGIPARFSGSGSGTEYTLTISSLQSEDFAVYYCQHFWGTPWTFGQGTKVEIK 5.4

Fill blank: measured hEphA7-SEAP-: absorbance at 450 nm, percentage with respect to hEphA4-SEAP-His as 100% of the molecule 144 (antibody, V domains shown, synthetic humanized antibody heavy chain variable region sequence; synthetic humanized antibody light chain variable region sequence) VH: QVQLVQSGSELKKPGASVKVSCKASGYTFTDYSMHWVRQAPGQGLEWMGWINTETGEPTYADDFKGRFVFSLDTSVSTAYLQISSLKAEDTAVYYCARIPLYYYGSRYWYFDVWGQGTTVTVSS VL: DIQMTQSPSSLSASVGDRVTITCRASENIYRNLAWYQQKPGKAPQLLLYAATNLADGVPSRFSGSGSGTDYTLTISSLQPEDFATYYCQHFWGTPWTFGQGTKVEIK is ____. 5.6
